Reference source: ChEMBL document CHEMBL5260820

Target: Histamine H3 receptor (Homo sapiens)
Sequence (Q9Y5N1 whole entry): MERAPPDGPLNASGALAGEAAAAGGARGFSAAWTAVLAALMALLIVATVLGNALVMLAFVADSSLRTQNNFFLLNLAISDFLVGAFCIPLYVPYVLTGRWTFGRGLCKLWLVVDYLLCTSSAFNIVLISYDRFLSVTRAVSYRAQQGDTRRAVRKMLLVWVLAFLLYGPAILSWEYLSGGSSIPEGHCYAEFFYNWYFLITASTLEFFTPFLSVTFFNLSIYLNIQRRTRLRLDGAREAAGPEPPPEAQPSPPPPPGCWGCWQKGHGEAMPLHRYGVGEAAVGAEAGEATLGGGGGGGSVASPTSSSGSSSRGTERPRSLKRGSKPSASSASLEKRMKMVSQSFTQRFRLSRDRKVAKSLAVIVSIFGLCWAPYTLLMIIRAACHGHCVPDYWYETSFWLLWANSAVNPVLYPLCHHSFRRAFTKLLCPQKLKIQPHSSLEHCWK
Experiment: Antagonist activity at human histamine H3 receptor expressed in CHO-K1 cells assessed as inhibition of imetit-stimulation ERK1/2 phosphorylation by ELISA analysis
Quantity name: pIC50
Formally, pIC50 is defined as -log10 of the concentration c, with c in mol/L.

Here are 3 molecules together with their reported answers.
# Molecule, Quantity name, Observed measurement
rows = [
    ("C[C@@]12CC[C@@H]3c4ccc(OCCCN5CCCC5)cc4CC[C@H]3[C@@H]1CCC2N1CCCC1 (some centres undefined)", "pIC50", 7.80),
    ("C[C@]12CC[C@@H]3c4ccc(OCCCN5CCC(C(N)=O)CC5)cc4CC[C@H]3[C@@H]1CC[C@@H]2N1CCCC1", "pIC50", 8.52),
    ("C[C@]12CC[C@@H]3c4ccc(OCCCN5CCCC5)cc4CC[C@H]3[C@@H]1CC[C@@H]2N1CCCC1", "pIC50", 8.21),
]

Now consider the entry below.
query: Entry `CC[C@]12CC[C@@H]3c4ccc(OCCCN5CCCC5)cc4CC[C@H]3[C@@H]1CC[C@@H]2N1CCCC1` : reported pIC50 = ?
result: 7.80
